Origin of the recorded values: PubChem BioAssay (NCI)

Assay: NCI Yeast Anticancer Drug Screen. Data for the rad14 strain (AID 159)
Details: S. cerevisiae rad14 strain growth inhibition; at 100.0 µM
This is part of a sample that, as a whole, favours compounds with a hit. Of some 79,000 tested, about 15% had one in any assay. Calls of active or inactive are those of the source. No stated cut-off is given here; in the data, active means growth inhibition above about 70%; inactive means the rest.
Select the matching outcome among Y for active, N for inactive

Query: I'd appreciate the recorded outcome for COC(=O)C(=O)CC(=O)c1cccc(OC)c1 from this test.
Result: Y

Query: Look up the recorded call for O=C1C(CCSc2ccccc2)C(=O)N(c2ccccc2)C1c1ccccc1 (configuration not stated) in this test.
Result: Y

Query: Please indicate how the test categorized COc1ccc2nc3cccc([N+](=O)[O-])c3c(NCCNCCO)c2c1 .
Result: Y

Query: Record lookup: outcome of this test for CC(=O)NC(c1nc2cc(C)c(C)cc2[nH]1)c1nc2cc(C)c(C)cc2[nH]1 ?
Result: N

Query: Would you mind telling me which call this test gave CCCCCCCCCCCCCCCCCCNC(=S)/N=C/c1c(O)c2ccccc2[nH]c1=O ?
Result: N

Query: Recorded call for NC(CS)C(=O)NCCNc1ccc(NCCNC(=O)C(N)CS)c2c1C(=O)c1c(O)ccc(O)c1C2=O (configuration not stated) ?
Result: N

Query: Field: outcome | Entry: COc1ccc(C(=O)/C=C\c2ccc(Cl)c(Cl)c2)cc1
Result: N

Query: How did this test come out for Cc1cccc(/C=N/NC(=S)NC2CCCCC2)n1 ?
Result: N

Query: Any idea what this test logged for O=[N+]([O-])c1ccc2[nH]c3c(-c4ccccc4)nccc3c2c1 ?
Result: Y

Query: Tell me the recorded outcome of this test for CCC[CH2][Ge]([CH2]CCC)([CH2]CCC)[O]C(=O)C(O)c1ccccc1 (configuration not stated) .
Result: Y

Query: // return assay outcome for ClCCCOc1c(Cl)cc(Cl)cc1Cl
Result: N

Query: Per the records of this test, what outcome belongs to O=C1C=C(NCCc2cc(Br)c(O)c(Br)c2)C(=O)c2ncccc21 ?
Result: Y

Query: What is the recorded call for this compound in the test? CC1(c2ccccc2)O[C@@H]2C[C@H]3[C@@H]4CCC5=CC(=O)C=C[C@]5(C)[C@@]4(F)[C@@H](O)C[C@]3(C)[C@]2(C(=O)CO)O1 (some centres not stated)
Result: Y

Query: Test call for this compound, please: CC1(C2CC2)C(C#N)(C#N)C1(C#N)C#N
Result: N

Query: Dear colleague, could you share the recorded outcome for Nc1cccc(-c2cc[cH-]c2)c1.[Fe+2].c1cc[cH-]c1 when you have a moment?
Result: Y

Query: Can you look up the reported call for O=C(NNc1ccccc1)C(CCCCNS(=O)(=O)Cc1ccccc1)NS(=O)(=O)Cc1ccccc1 (configuration not stated) for me?
Result: N

Query: I'd appreciate the recorded outcome for S=C1N(c2ccc(Cl)cc2)C2=C(N=Nc3ccccc3)C(=Nc3ccccc3S2)N1c1ccccn1 from this test.
Result: Y

Query: Entry CCCCN(CCC#N)c1ccc(/C=C/c2ccnc3ccccc23)cc1 : call = ?
Result: N

Query: So what was the verdict on CC(=O)Oc1ccc2c(c1)Cc1cc(N3C(=O)C=CC3=O)ccc1-2 in this test?
Result: Y

Query: # fetch the recorded call for Cc1ccc(NC(=O)CCC(=O)C(C)C(=O)c2ccccc2)c(C)c1 (configuration not stated) here
Result: N

Query: How was CC1(C)C(O)OC(O)C1(C)C (configuration not stated) classified in this test?
Result: N

Query: Check the results log: what was the call for COc1cc2oc3ccccc3c(=O)c2cc1CSc1ccccc1N ?
Result: N
